Exercise: state measured pIC50 for each of the compounds provided.
# experimental-system: CXCR7 (Homo sapiens, UniProt P25106)
# Sequence (P25106 whole entry): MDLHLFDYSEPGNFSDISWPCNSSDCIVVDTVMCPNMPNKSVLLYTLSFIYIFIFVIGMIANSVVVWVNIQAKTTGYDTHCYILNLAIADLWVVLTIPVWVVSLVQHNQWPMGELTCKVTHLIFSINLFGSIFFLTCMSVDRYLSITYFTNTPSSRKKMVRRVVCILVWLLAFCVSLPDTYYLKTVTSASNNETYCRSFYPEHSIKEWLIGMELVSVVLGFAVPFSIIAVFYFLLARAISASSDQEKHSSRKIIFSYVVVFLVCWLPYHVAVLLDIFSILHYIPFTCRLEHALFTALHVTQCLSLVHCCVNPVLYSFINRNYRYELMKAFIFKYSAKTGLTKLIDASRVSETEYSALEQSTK
# assay-explanation: CXCR7 β-arrestin recruitment assay in CHO-CXCR7 cells (ProLink/EA β-galactosidase complementation), induced by human SDF-1a
# condition-summary: assay buffer, SDF-1a at EC50 concentration
pIC50: −log10 of the molar value.

Tell me its pIC50 given CC(C)(NC(=O)CC1(NC(=O)c2cc(-c3ccc(F)cc3F)sn2)CN([C@H]2CC[C@@](C)(O)CC2)C1)c1cccc(Cl)c1 [Example 1.043] as the entry. 6.00 to 7.00

Entry Cc1ccc(F)c(C(C)(C)NC(=O)CC2(NC(=O)c3cc(-c4ccc(F)cc4F)on3)CN([C@H]3CC[C@](C)(O)CC3)C2)n1 [Example 1.008] needs its pIC50 filled in; supply it. > 8.30

Provide only the value of recorded pIC50 for C[C@]1(O)CC[C@H](N2CC(CC(=O)NCc3ccccn3)(NC(=O)c3cc(-c4ccc(F)cc4F)on3)C2)CC1 [Example 1.099] 4.70 to 6.00

Note pIC50 for the compound shown: COc1ccc(C(C)(C)NC(=O)CC2(NC(=O)c3cc(-c4ccc(F)cc4F)on3)CN([C@H]3CC[C@@](C)(O)CC3)C2)c(F)c1 [Example 1.212] 7.00 to 8.30

In one line, give reported pIC50 of the entry CC(C)(NC(=O)CC1(NC(=O)c2cc(-c3ccc(F)cc3F)on2)CN([C@H]2CC[C@](C)(O)CC2)C1)c1cc(Cl)ccc1F [Example 1.133] . > 8.30

Provide pIC50 value for the following compound: CC(C)(NC(=O)CC1(NC(=O)c2nnc(-c3ccc(F)cc3F)s2)CN([C@H]2CC[C@](C)(O)CC2)C1)c1cc(Cl)ccc1F [Example 1.336] 7.00 to 8.30

State its pIC50 for this compound: Cc1cccc(C(C)(C)NC(=O)CC2(NC(=O)c3cc(-c4ccc(F)cc4F)on3)CN(CC(C)C)C2)n1 [Example 1.026] 7.00 to 8.30

Give the value of pIC50 reported for the following: Cc1cc(Cl)cc(C(C)(C)NC(=O)CC2(NC(=O)c3nnc(-c4ccc(F)cc4F)s3)CN([C@H]3CC[C@](C)(O)CC3)C2)n1 [Example 1.006] > 8.30

Tell us which pIC50 value is on record for CC(C)(NC(=O)CC1(NC(=O)c2cc(-c3ccc(F)cc3F)on2)CN([C@H]2CC[C@](C)(O)CC2)C1)c1cccc(C2CC2)c1 [Example 1.144] 7.00 to 8.30

Name the recorded pIC50 of the item C[C@]1(O)CC[C@H](N2CC(CC(=O)NCc3ccccc3)(NC(=O)c3cc(-c4ccc(F)cc4F)on3)C2)CC1 [Example 1.128] in your answer. 4.70 to 6.00

Retrieve pIC50 measured for CC(C)(NC(=O)CC1(NC(=O)c2cc(-c3ccc(F)cc3F)on2)CN(C2CCCCC2)C1)c1cccc(F)c1 [Example 1.301] and print it. > 8.30

Quote pIC50 reported for CC(C)(NC(=O)CC1(NC(=O)c2nnc(-c3ccc(F)cc3F)s2)CN([C@H]2CC[C@@](C)(O)CC2)C1)c1ccccn1 [Example 1.062] please. 7.00 to 8.30

Indicate the recorded pIC50 value for this compound: CC(C)(NC(=O)CC1(NC(=O)c2cc(-c3ccc(F)cc3F)on2)CN(C2CCCCC2)C1)c1ccccc1F [Example 1.302] > 8.30

Using known records, supply pIC50 for CC(C)(NC(=O)CC1(NC(=O)c2cc(-c3ccc(F)cc3F)on2)CN([C@H]2CC[C@](C)(O)CC2)C1)c1cccc(F)c1 [Example 1.289] > 8.30

Determine its reported pIC50: CC(C)(NC(=O)CC1(NC(=O)c2cc(-c3ccc(F)cc3F)on2)CN(C2CCC3(CC2)COC3)C1)c1cc(Cl)cc(Cl)c1 [Example 1.092] 7.00 to 8.30

Output measured pIC50 for this item: CC(C)(NC(=O)CC1(NC(=O)c2cc(-c3ccc(F)cc3F)on2)CN([C@H]2CC[C@](C)(O)CC2)C1)c1cccc2[nH]ncc12 [Example 1.087] 4.70 to 6.00

// fetch pIC50 given entry CC(C)(NC(=O)CC1(NC(=O)c2cc(-c3ccc(F)cc3F)on2)CN(C2CCC(O)CC2)C1)c1ccccn1 (stereo not shown) [Example 1.300] 7.00 to 8.30

Complete the entry with pIC50 for Cc1ccc(F)c(C(C)(C)NC(=O)CC2(NC(=O)c3cc(-c4ccc(F)cc4F)on3)CN([C@H]3CC[C@](C)(O)CC3)C2)c1 [Example 1.185] > 8.30

Please list pIC50 recorded for the compound CC(C)(NC(=O)CC1(NC(=O)c2cc(-c3ccc(F)cc3F)on2)CN([C@H]2CC[C@@](C)(O)CC2)C1)c1ccc(Cl)cc1 [Example 1.249] 7.00 to 8.30

Please give measured pIC50 of the following entry: COc1cc(C)cc(C(C)(C)NC(=O)CC2(NC(=O)c3cc(-c4ccc(F)cc4F)on3)CN([C@H]3CC[C@](C)(O)CC3)C2)c1 [Example 1.119] 7.00 to 8.30

Given the compound Cc1ccnc(C(C)(C)NC(=O)CC2(NC(=O)c3cc(-c4ccc(F)cc4F)on3)CN([C@H]3CC[C@](C)(O)CC3)C2)c1 [Example 1.164] , write its reported pIC50. > 8.30

Let me know recorded pIC50 for CC(C)(NC(=O)CC1(NC(=O)c2cc(-c3ccc(F)cc3F)on2)CN([C@H]2CC[C@](C)(O)CC2)C1)c1cccc(OC(F)(F)F)c1 [Example 1.198] , thanks. 7.00 to 8.30

For the compound CC(C)(C)CN1CC(CC(=O)NC2(c3ncccn3)CC2)(NC(=O)c2cc(-c3ccc(F)cc3F)on2)C1 [Example 1.330] , give its measured pIC50 value. 7.00 to 8.30

Respond only with pIC50 recorded for CC1(C)CC(N2CC(CC(=O)NC(C)(C)c3ccccn3)(NC(=O)c3cc(-c4ccc(F)cc4F)on3)C2)CCO1 (stereo not shown) [Example 1.013] 7.00 to 8.30

State its pIC50: Cn1nc(-c2ccc(F)cc2F)cc1C(=O)NC1(CC(=O)NC(C)(C)c2cccc(Cl)c2)CN([C@H]2CC[C@@](C)(O)CC2)C1 [Example 1.058] 4.70 to 6.00

###

# experimental-system: CXCR7 (Homo sapiens, UniProt P25106)
# assay-explanation: CXCR7 β-arrestin recruitment assay in CHO-CXCR7 cells (ProLink/EA β-galactosidase complementation), induced by human SDF-1a
# condition-summary: assay buffer, SDF-1a at EC50 concentration
experimental-endpoint: IC50

Specify reported IC50 for the compound shown: CC(C)(NC(=O)CC1(NC(=O)c2cc(-c3ccc(F)cc3F)on2)CN([C@H]2CC[C@](C)(O)CC2)C1)c1ccncn1 5 to 100 nM

Fill in reported IC50 for this entry: O=C(CC1(NC(=O)c2cc(-c3ccc(F)cc3F)on2)CN(C2CCCC2)C1)NC1(c2ncccn2)CC1 5 to 100 nM

Item COc1cccc(C(C)(C)NC(=O)CC2(NC(=O)c3cc(-c4ccc(F)cc4F)on3)CN([C@H]3CC[C@](C)(O)CC3)C2)n1 : provide IC50 < 5 nM

Provide measured IC50 value, entry: COc1ccnc(C(C)(C)NC(=O)CC2(NC(=O)c3cc(-c4ccc(F)cc4F)on3)CN([C@H]3CC[C@@](C)(O)CC3)C2)c1 5 to 100 nM

Identify the reported IC50 for the following entry. CC(C)(NC(=O)CC1(NC(=O)c2cc(-c3ccc(F)cc3F)on2)CN([C@H]2CC[C@](C)(O)CC2)C1)c1ccccc1 < 5 nM

Read off the recorded IC50 for COc1cccc(C(C)(C)NC(=O)CC2(NC(=O)c3cc(-c4ccc(F)cc4F)on3)CN([C@H]3CC[C@](C)(O)CC3)C2)c1 5 to 100 nM

###

# experimental-system: CXCR7 (Homo sapiens, UniProt P25106)
# assay-explanation: CXCR7 β-arrestin recruitment assay in CHO-CXCR7 cells (ProLink/EA β-galactosidase complementation), induced by human SDF-1a
# condition-summary: assay buffer, SDF-1a at EC50 concentration
pIC50: −log10 of the molar value.
experimental-endpoint: pIC50

Please supply the value of reported pIC50 for the item CC(C)(NC(=O)CC1(NC(=O)c2cc(-c3ccc(F)cc3F)on2)CN(C2CCCCC2)C1)c1ccc(F)cc1 7.00 to 8.30

Query pIC50 for CC(C)(NC(=O)CC1(NC(=O)c2cc(-c3ccc(F)cc3F)no2)CN([C@H]2CC[C@](C)(O)CC2)C1)c1cccc(Cl)c1 > 8.30

Assign pIC50 to the following record: Cc1ccnc(C(C)(C)NC(=O)CC2(NC(=O)c3nnc(-c4ccc(F)cc4F)s3)CN([C@H]3CC[C@](C)(O)CC3)C2)n1 7.00 to 8.30

In one line, give reported pIC50 of the entry CC(C)CN1CC(CC(=O)NC(C)(C)c2cc(F)cc(F)c2)(NC(=O)c2cc(-c3ccc(F)cc3F)on2)C1 . 7.00 to 8.30

Please report the measured pIC50 for CC(C)(NC(=O)CC1(NC(=O)c2cc(-c3ccc(F)cc3F)on2)CN(C2CCOCC2)C1)c1ccccn1 7.00 to 8.30

# return recorded pIC50 for entry CC(C)(NC(=O)CC1(NC(=O)c2nnc(-c3ccc(F)cc3F)s2)CN([C@H]2CC[C@](C)(O)CC2)C1)c1cc(Cl)cc(C#N)c1 7.00 to 8.30

Dear colleague, please send me the reported pIC50 for CC(C)(NC(=O)CC1(NC(=O)c2cc(-c3ccc(F)cc3F)on2)CN([C@H]2CC[C@@](C)(O)CC2)C1)c1cc(F)ccc1F when you can. > 8.30

Give recorded pIC50. CC(C)(NC(=O)CC1(NC(=O)c2cn(-c3ccc(F)cc3F)cn2)CN(C2CCCCC2)C1)c1cccc(Cl)c1 4.70 to 6.00

Quickly give me recorded pIC50 for Cc1ccnc(C(C)(C)NC(=O)CC2(NC(=O)c3nnc(-c4ccc(F)cc4F)s3)CN([C@H]3CC[C@](C)(O)CC3)C2)c1 7.00 to 8.30

Find the measured pIC50 of O=C(CC1(NC(=O)c2cc(-c3ccc(F)cc3F)on2)CN(C2CCCCC2)C1)NC1(c2ccccn2)CC1 and report it. 7.00 to 8.30

Fill in pIC50 for record C[C@]1(O)CC[C@H](N2CC(CC(=O)NC3(c4cccc(Cl)c4)COC3)(NC(=O)c3cc(-c4ccc(F)cc4F)on3)C2)CC1 7.00 to 8.30

// Input: COc1cc(C(C)(C)NC(=O)CC2(NC(=O)c3cc(-c4ccc(F)cc4F)on3)CN(CC(C)(C)O)C2)ccn1 . Output its pIC50 only. 6.00 to 7.00

Note pIC50 for the molecule shown: Cc1ccc(C(C)(C)NC(=O)CC2(NC(=O)c3cc(-c4ccc(F)cc4F)on3)CN([C@H]3CC[C@](C)(O)CC3)C2)cc1C(F)(F)F 6.00 to 7.00

Let me know recorded pIC50 for Cc1ccc(C(C)(C)NC(=O)CC2(NC(=O)c3cc(-c4ccc(F)cc4F)on3)CN([C@H]3CC[C@](C)(O)CC3)C2)c(F)c1 , thanks. 6.00 to 7.00

Return value of pIC50 for input CC(C)(NC(=O)CC1(NC(=O)c2cc(-c3ccc(F)cc3F)on2)CN(C2CCCCC2)C1)c1nccs1 , no commentary. 7.00 to 8.30

In one line, give reported pIC50 of the entry COc1cccc(C(C)(C)NC(=O)CC2(NC(=O)c3cc(-c4ccc(F)cc4F)on3)CN([C@H]3CC[C@@](C)(O)CC3)C2)n1 . > 8.30

Give pIC50 for COc1cc(C(C)(C)NC(=O)CC2(NC(=O)c3cc(-c4ccc(F)cc4F)on3)CN([C@H]3CC[C@](C)(O)CC3)C2)ccc1F 7.00 to 8.30

Please report the measured pIC50 for CC(C)(NC(=O)CC1(NC(=O)c2cc(-c3ccc(F)cc3F)on2)CN([C@H]2CC[C@@](C)(O)CC2)C1)c1cccc(Cl)c1 > 8.30

Quickly give me recorded pIC50 for CC(C)(NC(=O)CC1(NC(=O)c2cc(-c3ccc(F)cc3F)on2)CN([C@H]2CC[C@](C)(C(=O)O)CC2)C1)c1ccccn1 6.00 to 7.00

Assign pIC50 to the following record: CC(C)(NC(=O)CC1(NC(=O)c2cc(-c3ccc(F)cc3F)on2)CN(CC2CC2)C1)c1ccccc1 7.00 to 8.30

Entry Cc1cc(C)nc(C(C)(C)NC(=O)CC2(NC(=O)c3nnc(-c4ccc(F)cc4F)s3)CN(CC3CC3)C2)n1 needs its pIC50 filled in; supply it. 7.00 to 8.30

Name the recorded pIC50 of the molecule listed here: Cc1cc(C(C)C)cc(C(C)(C)NC(=O)CC2(NC(=O)c3cc(-c4ccc(F)cc4F)on3)CN([C@H]3CC[C@](C)(O)CC3)C2)n1 6.00 to 7.00

Supply reported pIC50 belonging to this molecule: CC(C)(NC(=O)CC1(NC(=O)c2cc(-c3ccc(F)cc3F)on2)CN(CC2CCOC2)C1)c1ccccn1 (stereo not shown) 6.00 to 7.00

Given the molecule CC(C)(NC(=O)CC1(NC(=O)c2cc(-c3ccc(F)cc3F)on2)CN([C@H]2CC[C@@](C)(O)CC2)C1)c1cc(Cl)ccc1Cl , write its reported pIC50. > 8.30

Please give the documented pIC50 of Cc1cc(C(C)(C)NC(=O)CC2(NC(=O)c3cc(-c4ccc(F)cc4F)on3)CN(CC3(C)COC3)C2)ccn1 7.00 to 8.30
